system: MOLT-4; assay: NCI tumour cell line growth inhibition, 48 h
Activity calls are given as the source filed them. Cut-off read from the data, not from the text of the source: active = GI50 up to about 1.1 µM and inactive = higher.

# MOLECULE, GI50
data = [
    ("CCCC(=O)OC1CC(n2cc(F)c(=O)[nH]c2=O)OC1COP(=O)(OCC(Cl)(Cl)Cl)OCC(Cl)(Cl)Cl (centres undefined)", "2.48 µM (inactive)"),
    ("NC(=O)C(=O)n1ncc(Cl)c(Cl)c1=O", "3.59 µM (inactive)"),
    ("C[n+]1cccc2ccc(OC(=O)c3ccccc3)cc21", "> 100 µM (inactive)"),
    ("Nc1ncnc2c1ncn2C1OC(COP(=O)(O)CP(=O)(O)O)C(O)C1O (centres undefined)", "> 100 µM (inactive)"),
    ("N#CCC1(c2ccc(Cl)cc2)NC(=O)c2ccccc21 (centres undefined)", "> 100 µM (inactive)"),
    ("Cc1ccc(S(=O)(=O)C2CC2(Cl)Cl)cc1 (centres undefined)", "13.9 µM (inactive)"),
    ("COCn1c2ccc(OC(C)=O)cc2c2c(=O)oc(N(C)C)nc21", "> 100 µM (inactive)"),
    ("CC1(Cl)CC2C(CC1Sc1nnnn1-c1ccccc1)C2(C)C (centres undefined)", "30.1 µM (inactive)"),
    ("N#Cc1c(-c2ccc([N+](=O)[O-])cc2)cc(-c2ccc(Nc3ccnc4cc(Cl)ccc34)cc2)[nH]c1=O", "> 100 µM (inactive)"),
    ("CCC1=[N+](CC)CCN1CC", "> 100 µM (inactive)"),
    ("CCN1CN(c2ccccc2)C2(CCN(CC3COc4ccccc4O3)CC2)C1=O (centres undefined)", "14.5 µM (inactive)"),
    ("C[C@@H]1OC(=O)N2CCCC(=C3SCCCS3)C12 (some centres undefined)", "33.3 µM (inactive)"),
    ("CC(C)=C[C@@H]1C[C@H](C)c2c(O)cc(C)c3c2C1=C(C)C(=O)C3=O", "28.6 µM (inactive)"),
    ("C[N+](C)(C)CC(=O)N/N=C(/C=C/c1ccccc1)CC1OC(=O)c2ccccc21 (centres undefined)", "> 100 µM (inactive)"),
]

* * *

test system: SK-MEL-5; assay: NCI tumour cell line growth inhibition, 48 h
Activity calls are given as the source filed them. Rule as the data show it: active = GI50 up to about 1.1 µM and inactive = higher. Numbered stars: 1 amine (or outer) side, 2 acyl side, 3 side chain; on linkers, the order of the positions; unused ones are H or OH. Square brackets hold non-standard residues; d marks the D form. Peptide text beside a SMILES is read from it. * marks the point of attachment. X30 = CC(=O)N(C)SCC(N[*:1])C(=O)[*:2]; Cbz = O=C(OCc1ccccc1)*; Bn = c1ccc(C*)cc1
Labels: Yes = active, No = inactive

# COMPOUND, CLASSIFICATION
records = [
    ("CCSC12CC3c4cccc5c4C(CN5C(=O)c4ccccc4)CC3(O1)N(C)C2=O (stereo unspecified)", "No"),
    ("O=C1c2cccnc2S(=O)(=O)N1c1ccc(Br)cc1", "No"),
    ("CC(C)(C)c1cc(Br)c(O)c(CN(Cc2cc(C(C)(C)C)cc(Br)c2O)C2CCCCC2)c1", "No"),
    ("N#Cc1nc(-c2ccccc2O)oc1N", "No"),
    ("CCCc1nnc2sc(COc3ccc(OCc4nn5c(CCC)nnc5s4)c(Cl)c3)nn12", "No"),
    ("O=C1O/C(=C\\c2ccc(O)cc2)C(c2ccc(O)c(Cl)c2)=C1Cl", "No"),
    ("N#CC1=C(c2ccccc2)OC2(N)OC(c3ccccc3)=C(C#N)C12C#N (stereo unspecified)", "No"),
    ("O=NN(CC1(O)OCC(O)C(O)C1O)C(Cc1c[nH]c2ccccc12)C(=O)O (stereo unspecified)", "No"),
    ("O=C(CC1Sc2ccccc2NC1=O)Nc1ccccc1[N+](=O)[O-] (stereo unspecified)", "No"),
    ("O=C1CCC2C(O)c3cc4c(cc3C(c3ccc5c(c3)OCO5)N12)OCO4 (stereo unspecified)", "No"),
    ("CC[C@@]1(O)C(=O)OCc2c1c(Cl)c1n(c2=O)Cc2cc3ccccc3nc2-1", "No"),
    ("CCCCCCCCCCCCCCCCCCNC(=S)NC=C1C(=O)c2ccccc2C1=O", "No"),
    ("C[n+]1c2ccccc2c(CNCC(=O)O)c2ccccc21", "No"),
    ("COc1nc2c(c(O)c(C)c(=O)n2OC2OCC(OC(C)=O)C(OC(C)=O)C2OC(C)=O)c(=O)n1C (stereo unspecified)", "No"),
    ("O=C1Nc2ccccc2/C1=N/Nc1nc(-c2ccc([N+](=O)[O-])cc2)cs1", "No"),
    ("C[C@@H]1C[C@H](O)[C@]2(O)O[C@@H]3C[C@@]4(C=O)[C@@H](CC=C5[C@@H]4CC[C@]4(C)[C@@H](C6=CC(=O)OC6)CC[C@]54O)C[C@H]3O[C@@H]2O1", "Yes"),
    ("CCCC(=O)OCC1OC(n2cc(F)c(=O)[nH]c2=O)C(F)C1OC(=O)CCC (stereo unspecified)", "No"),
    ("COc1cc(OC(=O)c2ccccc2)cc2c1C(=O)C=CC2=O", "No"),
    ("C=C(CC[C@@H](C)[C@H]1CC[C@H]2[C@@H]3C[C@@H](O)[C@H]4C[C@@H](O)CC[C@]4(CO)[C@H]3CC[C@]12C)C(C)C", "No"),
    ("C[N+](C)(CCCn1ccnc1[N+](=O)[O-])CCCn1ccnc1[N+](=O)[O-]", "No"),
    ("COc1cc(C(=O)N(Cc2cccnc2)C(=S)N(Cc2cccnc2)C(=O)c2cc(OC)c(OC)c(OC)c2)cc(OC)c1OC", "No"),
    ("CN(C)/C=N/S(=O)(=O)c1nn2c(C=O)c(-c3ccccc3)nc2s1", "No"),
    ("O=C1NCC2(CCN(CC3COc4ccccc4O3)CC2)N1c1ccccc1 (stereo unspecified)", "No"),
    ("CC(=O)N(C)SCC(NC(=O)C(Cc1ccccc1)NC(=O)OCc1ccccc1)C(=O)NC(Cc1ccccc1)C(=O)NC(Cc1c[nH]c2ccccc12)C(=O)NC(CCCCNC(=O)OCc1ccccc1)C(=O)NC(C(=O)NC(CSN(C)C(C)=O)C(=O)NC(C(N)=O)C(C)OCc1ccccc1)C(C)OCc1ccccc1 (stereo unspecified) (Cbz-F[X30]FWK(Cbz)T(Bn)[X30]T(Bn)-NH2; configuration not given here)", "No"),
    ("CSCC[C@@H](NC(=O)[C@H](CC(C)C)NC(=O)C(Cc1cnc[nH]1)NC(=O)CNC(=O)[C@@H](NC(=O)[C@H](C)NC(=O)[C@H](Cc1cn(C=O)c2ccccc12)NC(=O)[C@H](CCC(N)=O)NC(=O)[C@@H](N)CC(N)=O)C(C)C)C(N)=O (stereo partly specified)", "No"),
    ("Cc1nn2c(=O)c([N+](=O)[O-])c(/C=C/c3ccc(F)cc3)nc2s1", "No"),
    ("COc1ccc(/C=c2/sc3n(c2=O)C(c2ccccc2)C2(O)CCCCC2N=3)cc1 (stereo unspecified)", "No"),
    ("O=Cc1ccc2c(c1)CC1(Cc3ccccc3C1)C2", "No"),
    ("CC(C)C[C@H](NC(=O)CCc1ccccc1)B(O)O", "No"),
    ("c1ccc(-c2cnc(-c3ccc(-c4ncc(-c5ccccc5)o4)cc3)o2)cc1", "No"),
    ("CC1OC2OC3C(OCC(O)C3O)OC(=O)[C@]34CCC(C)(C)CC3C3=CCC5[C@@]6(C)C[C@H](O)[C@H](OC7OC(CO)C(O)C(O)C7OC7OC(COC(=O)CC(C)(O)CC(=O)OC1C(OC1OC(CO)C(O)C(O)C1O)C2O)C(O)C(O)C7O)[C@@](C)(CO)C6CC[C@@]5(C)[C@]3(C)CC4 (stereo partly specified)", "Yes"),
]

* * *

Measured GI50 by item
system: NCI-H460; test: NCI tumour cell line growth inhibition, 48 h
Active and inactive are the calls of the source. Cut-off read from the data, not from the text of the source: active = GI50 up to about 1.1 µM and inactive = higher.

# COMPOUND, TESTED_TARGET, GI50
measured = [
    ("CC1(C)OCC(CO)(Nc2nc(N3CC3)nc(N3CC3)n2)CO1", "NCI-H460", "0.38 µM (active)"),
    ("CS(=O)(=O)OCCN(CCOS(C)(=O)=O)c1ccc(/C=N/c2cccc(Cl)c2)cc1", "NCI-H460", "0.269 µM (active)"),
    ("Cc1c(-c2ccccc2)nn2cc(-c3ccccc3)nnc12", "NCI-H460", "16.9 µM (inactive)"),
    ("FC1C2=C(SC1(F)F)C1CCC2C1 (configuration not stated)", "NCI-H460", "> 100 µM (inactive)"),
    ("CN(C)c1ccc(C2SCC(=O)N2c2ccc(Oc3ccc(Cl)cc3)c(Cl)c2)cc1 (configuration not stated)", "NCI-H460", "22.5 µM (inactive)"),
    ("O=C1c2ccccc2CC12CCC1(CC2)OCCO1", "NCI-H460", "> 100 µM (inactive)"),
    ("O=C1OC(C2Cc3cc4c(cc3C2=O)CCC4)c2ccccc21 (configuration not stated)", "NCI-H460", "40 µM (inactive)"),
    ("N#CC1=C(c2ccccc2)OC2(N)OC(c3ccccc3)=C(C#N)C12C#N (configuration not stated)", "NCI-H460", "> 100 µM (inactive)"),
    ("C(=N\\Nc1ccccc1)/c1nc2ccccc2nc1/C=N/Nc1ccccc1", "NCI-H460", "13.9 µM (inactive)"),
    ("CC(=O)O[C@H]1CCc2c(cc(N)c3c2C(=O)C[C@]2(C)C([C@H](C)CCCC(C)C)CCC32C)C1(C)C (some centres not stated)", "NCI-H460", "> 100 µM (inactive)"),
    ("O=S(=O)(OI(OI(OS(=O)(=O)C(F)(F)F)c1ccccc1)c1ccccc1)C(F)(F)F", "NCI-H460", "39.5 µM (inactive)"),
    ("c1ccc(C2=NNC3c4ccccc4-c4ccccc4N3C2)cc1 (configuration not stated)", "NCI-H460", "21.9 µM (inactive)"),
    ("NS(=O)(=O)c1nnc(NC(=O)c2ccccc2)s1", "NCI-H460", "> 100 µM (inactive)"),
    ("c1ccc2c(c1)Sc1nccc3ccnc-2c13", "NCI-H460", "5.57 µM (inactive)"),
    ("CC(=O)N(CCCCNC(=O)C(F)(F)F)CCCNC(=O)C(F)(F)F", "NCI-H460", "> 100 µM (inactive)"),
    ("Cc1cccc(C)c1CO", "NCI-H460", "> 100 µM (inactive)"),
    ("Cc1cccc2c1CC(C1OC(=O)c3c(C)cccc31)C2=O (configuration not stated)", "NCI-H460", "> 100 µM (inactive)"),
    ("C[C@]12CCNC(=O)C=C1CC[C@@H]1C2CC[C@@]2(C)C1CC[C@@H]2OC(=O)COc1ccc(N(CCCl)CCCl)cc1 (some centres not stated)", "NCI-H460", "0.308 µM (active)"),
    ("CN(C)/C=N/S(=O)(=O)c1nn2c(C=O)c(-c3ccccc3)nc2s1", "NCI-H460", "20.8 µM (inactive)"),
    ("CC(=O)/C(=C/n1c(=S)sc2ccccc21)C(=O)Nc1ccccc1C", "NCI-H460", "> 100 µM (inactive)"),
    ("CCCCSCCC(N)P(=O)(O)O (configuration not stated)", "NCI-H460", "> 100 µM (inactive)"),
    ("O=C1C(N2C(=O)c3ccccc3C2=O)CN1C(COCc1ccccc1)c1ccc(OCc2ccccc2)cc1 (configuration not stated)", "NCI-H460", "> 100 µM (inactive)"),
]
